growth values by entry
Test system: SF-268 CNS
experiment_summary: NCI-60 one-dose screen, 48 h (100 = growth as untreated, 0 = no growth, -100 = all killed)
conditions_used: 10 µM
The panel holds about 83,000 compounds, 20% with a hit somewhere; the sample as a whole holds those more often.
Provide the reading as a plain figure in %.

Enquiry: Which growth value belongs to `O=C(NCCc1nccs1)c1cnc2c(S)cccc2c1` ?
Return: 37.7

Consider the additional compound presented here.
Enquiry: Fill in the blank: the reported growth of `COc1ccc(COC(=O)CC(C)C)cc1` is ____.
Return: 93

###

System: SK-MEL-2 melanoma
experiment_summary: NCI-60 one-dose screen, 48 h (100 = growth as untreated, 0 = no growth, -100 = all killed)
conditions_used: 10 µM
The panel holds about 83,000 compounds, 20% with a hit somewhere; the sample as a whole holds those more often.
reported_endpoint: growth (%)
Respond with the bare value in %.

// solved cases for growth follow
Enquiry: What value of growth has been reported for the following compound? CC1=CC2OC34COC3CC(OC(=O)C(F)(F)F)C4(C)C2(C)CC1 (stereo not drawn)
Return: 104

Enquiry: Fill blank: measured growth of the compound `Cc1cccc2c(Nc3ccc(NS(C)(=O)=O)cc3)c3ccc([N+](=O)[O-])cc3nc12` is ____.
Return: -19.1

Enquiry: Which growth value is on record for `COc1ccc(C(=O)/C=C/c2cc(-c3ccc4c(c3)OCO4)n[nH]2)cc1OC` ?
Return: 84.4

Enquiry: Recorded growth of `CC(C)(C)c1ccc(OCCCCCCN2CCNCC2)cc1` , please.
Return: 82

New cases:
Enquiry: If you can, please state the reported growth value of `CCc1ccc(-c2nnc(COc3ccc(-c4nc5ccccc5[nH]4)cc3OC)o2)cc1` .
Return: 96.7

Enquiry: Request the reported growth associated with `COc1cc2c3c(cccc3c1)C(=O)N(CCN1CCCC1)C2=O`
Return: -8.39

Enquiry: May I ask what growth has been recorded for `C(=C\c1nc2ccccc2s1)/c1ccc(N2CCOCC2)s1` ?
Return: 81.2

Enquiry: For the compound `C=CCNC(=S)NN` , what growth is on record?
Return: 99.1

###

// growth lookup, one value per entry
Test system: HCT-116 colon
experiment_summary: NCI-60 one-dose screen, 48 h (100 = growth as untreated, 0 = no growth, -100 = all killed)
conditions_used: 10 µM
About 83,000 compounds went through this panel and 20% of them were active in at least one assay; those are over-represented in the sample as a whole.
A number alone suffices; assume %.

Enquiry: // query growth value for entry `C=CCNCCCN1C(=O)c2ccc3c4c(ccc(c24)C1=O)C(=O)N(CCCNCC=C)C3=O`
Return: -16

Enquiry: May I ask what growth has been recorded for `COc1ccc(-c2cc(/C=C/C(=O)c3ccc(N)cc3)[nH]n2)cc1OC` ?
Return: 17.4

Enquiry: I'd like to know its growth. The compound in question is `O=C(Nc1ccc(OS(=O)(=O)Cc2ccccc2)cc1)C12CC3CC(CC(C3)C1)C2`
Return: 63.9

Enquiry: Fill in the blank: the reported growth of `COc1ccc(/C=C2\SC(=S)N(CCCN3CCOCC3)C2=O)c(OC)c1` is ____.
Return: 92.2

Enquiry: Param item = `COc1ccc(-c2nc(-c3ccccc3)c(-c3ccccc3)[nH]2)cc1OC1CCCC1` ; retrieve measured growth.
Return: 73.6

Enquiry: Looking for the measured growth of COc1cccc2c1C(=O)c1c(O)c3c(c(O)c1C2=O)C[C@@](O)(C(=O)COC(=O)c1ccccc1)C[C@@H]3OC1CC(N)C(O)C(C)O1 (stereo not given in full) , can you help?
Return: -75

###

Test system: UACC-62 melanoma
experiment_summary: NCI-60 one-dose screen, 48 h
conditions_used: 10 µM
Compounds without any hit were thinned out: in the full panel of roughly 83,000, 20% have a hit. Active and inactive are the calls of the source. Rule for the calls: active = growth percent below 10; inactive = the rest.
Your response should consist of one outcome taken from active, inactive

Some entries whose results are on file:
Enquiry: Called result for `Cc1ccccc1C1=N[C@@H](Cc2ccccc2)C(=O)c2c(nc3ccccn23)N1`
Return: inactive

Enquiry: Please share the test call associated with `COc1cc(-c2nc3ccccc3[nH]2)ccc1OCc1nnc(-c2ccc(Br)cc2)o1` .
Return: inactive

Enquiry: Check the results log: what was the call for `CCCCn1c(=O)[nH]c(N)c(C(c2ccc(Cl)cc2)c2c(N)[nH]c(=O)n(CCCC)c2=O)c1=O` ?
Return: inactive

Enquiry: Recorded test outcome, item `N#Cc1cnc2ccc(NCc3cnc[nH]3)cc2c1Nc1ccc(F)c(Cl)c1`
Return: inactive

Enquiry: Returns: the outcome recorded for `O=C(Nc1cccc(F)c1)Nc1cccc(Cl)c1` in this assay.
Return: inactive

---
Enquiry: Tell me the assay call for `O=C(Nc1cccc(-c2nc3ccccc3[nH]2)c1)c1cccc(NC(=O)c2ccco2)c1` please.
Return: active

Enquiry: Hi, do you know how `Cc1ccc(Cl)cc1Nc1nc(C(F)(F)F)ccc1C(=O)N/N=C/c1c(Cl)cccc1Cl` came out in this test?
Return: active

Enquiry: Please state the recorded outcome for this compound: `O=C(CSc1nnc(-c2ccc(Cl)cc2)o1)c1ccccc1`
Return: inactive

Enquiry: Please indicate how the test categorized `CNCCCNCCCN1C(=O)c2ccc3c4c(ccc(c24)C1=O)C(=O)N(CCCNCc1ccccc1OC)C3=O` .
Return: active

Enquiry: Test call for this compound, please: `COc1cc2nc(Sc3sc(N)nc3C)n(-c3ccc(Oc4ccccc4)cc3)c(=O)c2cc1OC`
Return: inactive

Enquiry: Recorded test outcome, item `C#Cc1ccc(-n2c(/C=C/c3cc(OC)c(OC)c(OC)c3)nc3ncccc3c2=O)cc1`
Return: inactive

###

Test system: 786-0 renal
experiment_summary: NCI-60 one-dose screen, 48 h (100 = growth as untreated, 0 = no growth, -100 = all killed)
conditions_used: 10 µM
The panel holds about 83,000 compounds, 20% with a hit somewhere; the sample as a whole holds those more often.
Measured growth values are reported for all entries that follow.
The reply should contain only the number, in %.

Guide cases for growth, answers given:
Enquiry: growth for CCN(CC)CC(O)CNc1ccnc2cc(Cl)c(Cl)cc12 (stereo unspecified) ?
Return: 86.1

Enquiry: State the recorded growth for this entry: `CCN(CC)CCOC(=O)c1ccc(NC(=O)Nc2cccc(Cl)c2)cc1`
Return: 95.5

Enquiry: Quick one: growth of `Brc1ccc(-c2cn3ccnc3c(-c3ccc(Br)cc3)n2)cc1` ?
Return: 57.8

Enquiry: I am curious: what growth value has been reported for `CCCCCCCCCCCCCC[n+]1ccc(C)cc1` ?
Return: -3.94

Enquiry: Please give the measured growth for this molecule: `C[C@]12CC[C@H]3[C@@H](CC=C4C[C@@H](O)CC[C@@]43C)[C@@H]1CC[C@@H]2C(=O)C/C=N/O`
Return: 90.8

Okay, now this molecule:
Enquiry: Requested read-out: growth. Entry: `N#Cc1cnc2ccc(NCc3cnc[nH]3)cc2c1Nc1ccc(F)c(Cl)c1`
Return: 65.7

###

Test system: MCF7 breast
experiment_summary: NCI-60 one-dose screen, 48 h
conditions_used: 10 µM
The panel holds about 83,000 compounds, 20% with a hit somewhere; the sample as a whole holds those more often. Activity calls are given as the source filed them. The calls were made as follows: active = growth percent below 10; inactive = the rest.
Your reply should match one of these outcome classes. active, inactive

Here's what some known entries look like.
Enquiry: Which result was noted for this compound in the test: `C=CCn1ccc(=O)nc1SC`
Return: inactive

Enquiry: Please indicate how the test categorized `COc1ccc(Cn2cc3c(c2-c2cc(OC)c(OC)c(OC)c2)CCc2cnoc2-3)cc1[N+](=O)[O-]` .
Return: inactive

Enquiry: Which outcome was entered for the compound Cn1c(=O)c2[nH]c(C(O)c3ccc(Cl)cc3)nc2n(C)c1=O (stereo not given) in this test?
Return: inactive

Enquiry: Tell me the recorded outcome of this test for COc1ccc(C(C)=O)cc1N1C(=O)C2C(C1=O)C1(c3ccccc3)C(=O)C2(c2ccccc2)C(c2ccc(C)cc2)=C1c1ccc(C)cc1 (stereo not given) .
Return: inactive

Enquiry: Dear colleague, could you share the recorded outcome for `CCc1c(C)[nH]c(=O)c(C(N)=O)c1C#N` when you have a moment?
Return: inactive

Next:
Enquiry: # fetch the recorded call for `CC(=O)Nc1nc(C)c(C(=O)NNC=O)s1` here
Return: inactive

Enquiry: Query: recorded result category for `COc1cccc(C(=O)NNc2nc(N3CCOCC3)nc(N3CCN(C(c4ccccc4)c4ccccc4)CC3)n2)c1` in this test
Return: inactive

###

// values below are reported growth
Test system: PC-3 prostate
experiment_summary: NCI-60 one-dose screen, 48 h (100 = growth as untreated, 0 = no growth, -100 = all killed)
conditions_used: 10 µM
The panel holds about 83,000 compounds, 20% with a hit somewhere; the sample as a whole holds those more often. Active and inactive are the calls of the source. Rule for the calls: active = growth percent below 10; inactive = the rest.

Enquiry: Using the record for `CCOC(=O)C(=O)Cc1cccnn1` , report its growth.
Return: 91.7% (inactive)

Enquiry: Requested read-out: growth. Entry: `COc1cc(-c2nc(-c3nnc(-c4cccnc4)o3)c3ccccn23)cc(OC)c1OC`
Return: 101% (inactive)

Further cases:
Enquiry: I would be grateful if you could share the reported growth for `Nc1c(C(=O)NC2CCCCC2)sc2nc3c(cc12)C(=O)CCC3` .
Return: 92.4% (inactive)

Enquiry: Entry NS(=O)(=O)c1ccc(N2N=C(c3ccc(-c4ccccc4)cc3)CC2c2ccc(Cl)cc2)cc1 (stereo unspecified) has what growth?
Return: 43.2% (inactive)

Enquiry: Requested field: growth. Item: `CCc1c(C(=O)NCc2c(O)ccc3cccc(O)c23)[nH]c(C)c1C(C)=O`
Return: 27.4% (inactive)

Enquiry: Would you kindly share the measured growth for `C[C@]12CC[C@H]3[C@@H](CC=C4C[C@@H](O)CC[C@@]43C)[C@@H]1CC[C@@H]2C(=O)C/C=N/O` ?
Return: 71.9% (inactive)
